Let's look at some compounds and their measured GI50.
- Tested on: OVCAR-8
- assay remarks: NCI tumour cell line growth inhibition, 48 h
Activity calls are given as the source filed them. Rule as the data show it: active = GI50 up to about 1.1 µM and inactive = higher.

These solved cases illustrate the format of a correct answer.
Record CCO/C=N/C1=C(C#N)C(c2ccc(OC)c(OC)c2)c2c(-c3ccccc3)nn(-c3ccccc3)c2O1 (configuration not stated) . Reported GI50: 19.2 µM (inactive)

Per the records, this compound ( O=C(Nn1c(-c2ccccc2)nc2ccccc2c1=O)c1ccccn1 ) has GI50 equal to 64.4 µM (inactive)

Entry COC(=O)[C@@H]1CN(C(=O)c2ccccc2)C(=O)N1 — recorded GI50 = > 100 µM (inactive)

What the record says about O=C(O)C1(Cc2ccc3c(c2)CCC3)Cc2ccccc2C1 : GI50 is 63.7 µM (inactive)

Record summary for COC(=O)c1c(OC(C)=O)ccc2c1c1c(n2C)C(=O)c2ccccc2C1=O : reported GI50 = 25.8 µM (inactive)

For record O=C1OC(c2ccccc2)=N/C1=C\c1cccc(F)c1 the listed GI50 is 26.2 µM (inactive)

Further cases:
// GI50 lookup, compound = C=CC(O)(CBr)CCC(Br)C(=C)C (configuration not stated) , result: > 10 µM (inactive)

For this compound ( COC1CCC(OS(C)(=O)=O)C(CO)O1 (configuration not stated) ), measured GI50 is > 100 µM (inactive)

Per the record, Cc1cnoc1/N=C1\C=C(O)C(=O)c2ccccc21 has GI50 of 25.8 µM (inactive)

GI50 recorded for this compound, Cn1c([C@H](C#N)C(=O)c2cc(O)ccc2[N+](=O)[O-])nc2ccccc21 , is > 100 µM (inactive)

Quick note, GI50 for CCOP(=O)(OCC)/C(C#N)=C/c1cnc[nH]1 landed at > 100 µM (inactive)

// field: GI50; key: CCN(CC)CSc1nc2ccccc2s1 ; value = > 100 µM (inactive)

====

- Tested on: HOP-92
- assay remarks: NCI tumour cell line growth inhibition, 48 h
Activity calls are given as the source filed them. Rule as the data show it: active = GI50 up to about 1.1 µM and inactive = higher.
Parameter call: string, one of 1 for active, -1 for inactive

Ask: Returns: the outcome recorded for C=C(COCO)C(C)=O in this assay.
Reply: -1

Ask: Hey, what did the test say about CC1=CSC(O)(c2ccc(Cl)cc2)c2noc(=O)n21 (stereo not given) ?
Reply: -1

Ask: Field: outcome | Entry: Cc1cc(NS(=O)(=O)c2ccc(Nc3c4ccccc4nc4ccc(C(=O)Nc5ccc(S(=O)(=O)N=C(N)N)cc5)cc34)cc2)no1
Reply: -1

Ask: Please state the recorded outcome for this compound: O=C(/C=C/c1ccc(OCC(=O)N2CCN(c3ccccc3)CC2)cc1)c1ccc(Cl)cc1
Reply: -1

Ask: In this assay, the call recorded for CCCCC/C(=N\c1[nH]nnc1C(N)=O)OCC was what?
Reply: -1

Ask: Look up the recorded call for C/C1=C/C(C)CC(C)OC(=O)C(C)NC(=O)C(Cc2ccc(O)c(I)c2)N(C)C(=O)CNC(=O)C(C)C1 (stereo not given) in this test.
Reply: 1

Next:
Ask: What did this assay record as the result for C=CCN(C(C)=O)c1cc(OCc2ccccc2)c2c(c1)c(C)cn2S(=O)(=O)c1ccccc1 ?
Reply: -1

Ask: Dear all, I need the recorded test outcome for Nc1ncc(Cc2ccc3c(c2)OCO3)c(N)n1 , thank you.
Reply: -1

Ask: Write down the call the test reported for this compound. Item: Cc1cccc(/C=N/NC(=S)Nc2ccccc2)n1
Reply: -1

Ask: Assay result, entry c1ccc(CSCCC(SCc2ccccc2)SCc2ccccc2)cc1 — outcome?
Reply: -1

====

- System: DU-145
- assay remarks: NCI tumour cell line growth inhibition, 48 h
The source made the active and inactive calls. Cut-off read from the data, not from the text of the source: active = GI50 up to about 1.1 µM and inactive = higher.
Catalogue of GI50 readings, one per entry.

Measured on DU-145, COc1cc(OC)c2c(c1)OC(c1cccnc1)C(c1ccccc1)C2=O (stereo not given) has a documented GI50 of > 100 µM (inactive)

DU-145 assay, compound COc1cc(/C=C2\CCC/C(=C\c3ccc(OC(=O)CCCCC4CCSS4)c(OC)c3)C2=O)ccc1OC(=O)CCCCC1CCSS1 (stereo not given) , recorded GI50 = > 100 µM (inactive)

# C[N+]12CCCCC1C(COc1cccc3cccnc13)CCC2 (stereo not given) with DU-145: GI50 is > 100 µM (inactive)

Readout GI50 for N#CC1=C(N)OC2=C(CSc3ccccc32)C1c1ccc(Br)cc1 (stereo not given) , test system DU-145, was 20 µM (inactive)

Test item Cn1c(C(C#N)c2cc(Cl)ncn2)nc2ccccc21 (stereo not given) ; DU-145; reported GI50 was > 100 µM (inactive)

Field GI50 (system: DU-145) for entry N#CC1(C#N)NC(c2cccs2)C(C#N)(C#N)NC1c1cccs1 (stereo not given) = 59.7 µM (inactive)

Log: DU-145, compound C=CCc1[nH]c2c(OCc3ccccc3)cc(N(CC=C)C(C)=O)cc2c1C , GI50 = 14.1 µM (inactive)

Bench note, DU-145: O=CC1OC(=O)c2cc(O)c(O)c(O)c2-c2c(cc(O)c(O)c2O)C(=O)OC1C(O)C(O)CO (stereo not given) , GI50 reads > 100 µM (inactive)

Continuing:
Value sought: GI50, system DU-145, item CO/N=C(/C)c1cccc(Nc2nc3ccc(Cl)cc3c3[nH]c4ccccc4c23)c1 . Result: 12.2 µM (inactive)

Reported GI50 (DU-145) for entry O=C1CC(Br)c2c(Br)sc(Br)c21 (stereo not given) is 20.7 µM (inactive)

====

- Test system: UO-31
- assay remarks: NCI tumour cell line growth inhibition, 48 h
Calls of active or inactive are those of the source. No stated cut-off is given here; in the data, active = GI50 up to about 1.1 µM and inactive = higher.
compounds and their reported GI50

Record CCO/C=N/C1=C(C#N)C(c2ccc(OC)c(OC)c2)c2c(-c3ccccc3)nn(-c3ccccc3)c2O1 (stereo not given) , field GI50: 17.7 µM (inactive)

GI50 reported for this compound Cn1c(C(C#N)c2cc(Cl)ncn2)nc2ccccc21 (stereo not given) : > 100 µM (inactive)

Kindly note the recorded GI50 for C/C(=C\CNc1ncnc2c1ncn2CCC#N)CO , which is > 100 µM (inactive)

Further cases:
Sample CC(C)(C)C(=O)/C=C(\OB(F)F)C(C)(C)C ; GI50 observed: > 100 µM (inactive)

Input Cc1ccc(NC(=O)NC23CC4CC(CC(F)(C4)C2)C3)cc1 . Output GI50: 40.1 µM (inactive)

Sample O=C(/C=C/c1ccc(O)c(O)c1)NCCc1ccc(-c2ccccc2)cc1 ; GI50 observed: 94.8 µM (inactive)

Record C=CCc1[nH]c2c(OCc3ccccc3)cc(N(CC=C)C(C)=O)cc2c1C , field GI50: 9.08 µM (inactive)

Reported GI50 for O=C(C=P(c1ccccc1)(c1ccccc1)c1ccccc1)CC(=S)CC(=O)C=P(c1ccccc1)(c1ccccc1)c1ccccc1 was 29.3 µM (inactive)

The reported value for CCCCCCCCCCCCC(Br)C(C)=O (stereo not given) in terms of GI50 is > 100 µM (inactive)

// field: GI50; key: Cc1ccc(C2SCc3nc4ccccc4n32)cc1 (stereo not given) ; value = 5.36 µM (inactive)

Entry under test: Cc1c(C)n(-c2ccccc2)c2nc(S(C)(=O)=O)nc(S(C)(=O)=O)c12 . Its GI50 was 1.71 µM (inactive)

So, COC(=O)C(Nc1ccc(OC)cc1)c1ccccc1 (stereo not given) ? Its GI50 was > 100 µM (inactive)

GI50 reported for this compound CCOc1ccc(NC(=O)/C(=N\NC(C)(C)C)C2C(=O)Nc3ccccc3[S+]2[O-])cc1 (stereo not given) : > 100 µM (inactive)

Lab note: Nc1nc(Cl)cc(/N=N\c2ccccc2)n1 gave GI50 of 42.1 µM (inactive)

Memo: CC1=NN(c2cccc(Cl)c2)C(=N/c2nc3ccccc3s2)/C1=C\C=C\c1ccccc1 , reported GI50: 28.4 µM (inactive)

Item: CC(=O)Nc1c(Nc2ccccc2)[nH]c(C)nc1=S | GI50: > 100 µM (inactive)

Briefly, GI50 measured for C[C@]1(O)CC[C@H]2[C@@H]3CCc4cc(O)ccc4[C@H]3CC[C@@]21C : 8.32 µM (inactive)

Form: compound = CCCCC(O)(c1ccccc1)C(O)(c1ccccc1)c1c(F)c(F)c(F)c(F)c1F (stereo not given) ; GI50 = 30.3 µM (inactive)

Recorded GI50 (compound O=C1c2ccccc2C(=O)N1Cc1ccccc1-c1c2nc(c(-c3ccccc3CN3C(=O)c4ccccc4C3=O)c3ccc([nH]3)c(-c3ccccc3CN3C(=O)c4ccccc4C3=O)c3nc(c(-c4ccccc4CN4C(=O)c5ccccc5C4=O)c4ccc1[nH]4)C=C3)C=C2 ): > 100 µM (inactive)

Memo: Cc1ccc(-c2c3c(n(C4OC(CO)C(O)C(O)C4O)c(=S)c2C#N)CC(C)(C)CC3=O)cc1 (stereo not given) , reported GI50: 60 µM (inactive)
